# MEASUREMENT_TARGET: T1, murine BACE1 ECD
# T1 construct: analyte of the Octet assay (200 nM) and enzyme of the first short substrate assay
# T1 sequence (single chain, as listed by the source limits assumed): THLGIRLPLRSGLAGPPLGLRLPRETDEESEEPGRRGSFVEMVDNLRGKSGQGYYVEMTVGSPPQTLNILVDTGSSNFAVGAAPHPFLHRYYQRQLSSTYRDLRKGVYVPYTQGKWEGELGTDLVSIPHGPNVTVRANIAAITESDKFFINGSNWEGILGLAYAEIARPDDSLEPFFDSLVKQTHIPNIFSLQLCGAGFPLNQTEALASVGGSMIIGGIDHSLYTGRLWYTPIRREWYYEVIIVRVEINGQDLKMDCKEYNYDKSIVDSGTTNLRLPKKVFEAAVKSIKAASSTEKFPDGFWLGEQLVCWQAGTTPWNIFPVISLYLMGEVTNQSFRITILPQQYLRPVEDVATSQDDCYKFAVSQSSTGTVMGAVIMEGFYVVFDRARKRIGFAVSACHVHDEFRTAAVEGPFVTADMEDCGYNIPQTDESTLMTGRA
# EXPERIMENT_DESCRIPTION: Octet, pH 7.5
pKd: −log10 of the molar value.
READOUT_KIND: pKd

6311 (antibody, V domains shown, anti-BACE1 IgG) VH: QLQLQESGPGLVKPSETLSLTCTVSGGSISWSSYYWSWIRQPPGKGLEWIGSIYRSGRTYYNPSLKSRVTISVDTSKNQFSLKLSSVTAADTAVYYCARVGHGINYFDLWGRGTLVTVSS VL: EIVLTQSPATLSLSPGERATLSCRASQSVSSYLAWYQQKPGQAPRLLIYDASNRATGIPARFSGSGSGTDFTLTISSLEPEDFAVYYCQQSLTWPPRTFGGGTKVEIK: 9.62
6309 (antibody, V domains shown, anti-BACE1 IgG) VH: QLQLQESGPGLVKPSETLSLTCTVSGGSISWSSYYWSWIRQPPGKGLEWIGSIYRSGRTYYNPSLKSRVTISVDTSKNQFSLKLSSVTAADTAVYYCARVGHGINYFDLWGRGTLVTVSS VL: EIVLTQSPATLSLSPGERATLSCRASQSVSSYLAWYQQKPGQAPRLLIYDASNRATGIPARFSGSGSGTDFTLTISSLEPEDFAVYYCQQSITWPPRTFGGGTKVEIK: 9.49
6313 (antibody, V domains shown, anti-BACE1 IgG) VH: QLQLQESGPGLVKPSETLSLTCTVSGGSISRGSYYWGWIRQPPGKGLEWIGMIYYSGSTWYNPSLKSRVTISVDTSKNQFSLKLSSVTAADTAVYYCARVGHGVSYFDLWGRGTLVTVSS VL: EIVLTQSPATLSLSPGERATLSCRASQSVSSYLAWYQQKPGQAPRLLIYDASNRATGIPARFSGSGSGTDFTLTISSLEPEDFAVYYCQQAYVWPPRTFGGGTKVEIK: 9.57
